assayText: Cmax in rhesus monkey at 10 mg/kg, po
Format: ADME, organism-based, Macaca mulatta
Parameters: dose 10 mg/kg, route oral
particulars: in vivo
quantityKind: Cmax (µM)
Numbers only, in µM.

What the record says about "CN(C)C(=O)C(=O)N(C)[C@H]1CCCCn2c1nc(C(=O)NCc1ccc(F)cc1)c(O)c2=O" : Cmax is 10

* * *

assayText: Oral bioavailability in dog at 2 mg/kg
Format: ADME, organism-based, Canis lupus familiaris
particulars: in vivo
Assign bioavailability to each entry below.
Answers are plain numbers, in %.

CN(C)S(=O)(=O)N(C)[C@@H]1CCCn2c1nc(C(=O)NCc1ccc(F)cc1)c(O)c2=O = 42

What the record says about "CN(C)S(=O)(=O)N(C)[C@H]1CCCn2c1nc(C(=O)NCc1ccc(F)cc1)c(O)c2=O" : bioavailability is 16

* * *

assayText: Volume of distribution at steady state in rat at 3 mg/kg, iv or 10 mg/kg, po
Type: ADME, organism-based
particulars: in vivo, read-out: Vdss
quantityKind: Vd (L/kg)
Give bare numbers, in L/kg.

What the record says about "CN(C)C(=O)C(=O)N(C)[C@H]1CCCCn2c1nc(C(=O)NCc1ccc(F)cc1)c(O)c2=O" : Vd is 0.7

* * *

assayText: AUC in rhesus monkey at 10 mg/kg, po
Format: ADME, organism-based, Macaca mulatta
Set-up: dose 10 mg/kg, route oral
particulars: plasma
quantityKind: AUC (µM·h)
One number for each entry, in µM·h.

What the record says about "CN(C)C(=O)C(=O)N(C)[C@H]1CCCCn2c1nc(C(=O)NCc1ccc(F)cc1)c(O)c2=O" : AUC is 14

* * *

assayText: Inhibition of recombinant HIV1 integrase strand transfer activity
quantityKind: IC50 (nM)
Give bare numbers, in nM.

Before answering, review these 4 worked examples.
CN1CCCN(C2CCCn3c2nc(C(=O)NCc2ccc(F)cc2)c(O)c3=O)S1(=O)=O (racemic) = 14
CN1CCN(S(=O)(=O)N(C)C2CCCn3c2nc(C(=O)NCc2ccc(F)cc2)c(O)c3=O)CC1 (racemic) = 7
CN(C(=O)c1nc2ncccn2n1)C1CCCn2c1nc(C(=O)NCc1ccc(F)cc1)c(O)c2=O (racemic) = 10
CN(C(=O)CS(=O)(=O)N(C)C)[C@H]1CCCn2c1nc(C(=O)NCc1ccc(F)cc1)c(O)c2=O = 7

State recorded IC50 for all listed molecules.
1. CN1CCCN(C2CCCCn3c2nc(C(=O)NCc2ccc(F)cc2)c(O)c3=O)S1(=O)=O (racemic)
2. O=C(NCc1ccc(F)cc1)c1nc2n(c(=O)c1O)CCCCC2
3. CN(C)C(=O)C(=O)N(C)[C@H]1CCCCn2c1nc(C(=O)NCc1ccc(F)cc1)c(O)c2=O

Reply:
1: 6; 2: 19; 3: 12

State recorded IC50 for all listed molecules.
1. CN(C1CCCn2c1nc(C(=O)NCc1ccc(F)cc1)c(O)c2=O)S(=O)(=O)N1CCCC1 (racemic)
2. Cc1nn(C)c(C)c1S(=O)(=O)N(C)C1CCCn2c1nc(C(=O)NCc1ccc(F)cc1)c(O)c2=O (racemic)

Reply:
1. 7
2. 7

State recorded IC50 for all listed molecules.
1. O=C(NCc1ccc(F)cc1)c1nc2n(c(=O)c1O)CCCC2N1CCOCC1 (racemic)
2. CN(C)C(=O)C(=O)N(C)[C@@H]1CCCCn2c1nc(C(=O)NCc1ccc(F)cc1)c(O)c2=O
3. CN(C1CCCn2c1nc(C(=O)NCc1ccc(F)cc1)c(O)c2=O)S(=O)(=O)N1CCOCC1 (racemic)
4. CN1CCN(S(=O)(=O)N(C)[C@H]2CCCn3c2nc(C(=O)NCc2ccc(F)cc2)c(O)c3=O)CC1
5. CN(C)S(=O)(=O)N(C)C1CCCCn2c1nc(C(=O)NCc1ccc(F)cc1)c(O)c2=O (racemic)
6. CN(C(=O)Cn1cccn1)C1CCCn2c1nc(C(=O)NCc1ccc(F)cc1)c(O)c2=O (racemic)

Reply:
5
35
11
7
10
3

// data source = ChEMBL document CHEMBL1143246
